The origin of these recorded values is BigSolDB 2.1.

- conditions: in THF, 323.15 K
property-measured: solubility (mole fraction)
In your answer, state the number alone without any accompanying words.

### Prompt Fill blank: measured solubility (mole fraction) of the compound c1ccc(-n2c(-c3cc(-c4nc5ccccc5n4-c4ccccc4)cc(-c4nc5ccccc5n4-c4ccccc4)c3)nc3ccccc32)cc1 is ____.
### Response 0.00451

====

- conditions: in methanol, 303.15 K
property-measured: solubility (mole fraction)
In your answer, state the number alone without any accompanying words.

### Prompt Fill blank: measured solubility (mole fraction) of the compound c1ccc(-n2c(-c3cc(-c4nc5ccccc5n4-c4ccccc4)cc(-c4nc5ccccc5n4-c4ccccc4)c3)nc3ccccc32)cc1 is ____.
### Response 0.00029

====

- conditions: in ethanol, 293.15 K
property-measured: solubility (mole fraction)

### Prompt Fill blank: measured solubility (mole fraction) of the molecule c1ccc(-n2c(-c3cc(-c4nc5ccccc5n4-c4ccccc4)cc(-c4nc5ccccc5n4-c4ccccc4)c3)nc3ccccc32)cc1 is ____.
### Response 0.000437

====

- conditions: in n-hexane, 283.15 K
property-measured: solubility (mole fraction)
In your answer, state the number alone without any accompanying words.

### Prompt Fill blank: measured solubility (mole fraction) of the molecule c1ccc(-n2c(-c3cc(-c4nc5ccccc5n4-c4ccccc4)cc(-c4nc5ccccc5n4-c4ccccc4)c3)nc3ccccc32)cc1 is ____.
### Response 3.9e-06

====

- conditions: in DMSO, 293.15 K
property-measured: solubility (mole fraction)

### Prompt Fill blank: measured solubility (mole fraction) of the compound c1ccc(-n2c(-c3cc(-c4nc5ccccc5n4-c4ccccc4)cc(-c4nc5ccccc5n4-c4ccccc4)c3)nc3ccccc32)cc1 is ____.
### Response 0.00119

====

- conditions: in methanol, 323.15 K
property-measured: solubility (mole fraction)
In your answer, state the number alone without any accompanying words.

### Prompt Fill blank: measured solubility (mole fraction) of the molecule c1ccc(-n2c(-c3cc(-c4nc5ccccc5n4-c4ccccc4)cc(-c4nc5ccccc5n4-c4ccccc4)c3)nc3ccccc32)cc1 is ____.
### Response 0.000361

====

- conditions: in DMSO, 313.15 K
property-measured: solubility (mole fraction)
In your answer, state the number alone without any accompanying words.

### Prompt Fill blank: measured solubility (mole fraction) of the molecule c1ccc(-n2c(-c3cc(-c4nc5ccccc5n4-c4ccccc4)cc(-c4nc5ccccc5n4-c4ccccc4)c3)nc3ccccc32)cc1 is ____.
### Response 0.0023

====

- conditions: in n-butanol, 293.15 K
property-measured: solubility (mole fraction)

### Prompt Fill blank: measured solubility (mole fraction) of the compound c1ccc(-n2c(-c3cc(-c4nc5ccccc5n4-c4ccccc4)cc(-c4nc5ccccc5n4-c4ccccc4)c3)nc3ccccc32)cc1 is ____.
### Response 0.00132

====

- conditions: in cyclohexane, 303.15 K
property-measured: solubility (mole fraction)
In your answer, state the number alone without any accompanying words.

### Prompt Fill blank: measured solubility (mole fraction) of the compound c1ccc(-n2c(-c3cc(-c4nc5ccccc5n4-c4ccccc4)cc(-c4nc5ccccc5n4-c4ccccc4)c3)nc3ccccc32)cc1 is ____.
### Response 6e-07

====

- conditions: in THF, 313.15 K
property-measured: solubility (mole fraction)
In your answer, state the number alone without any accompanying words.

### Prompt Fill blank: measured solubility (mole fraction) of the compound c1ccc(-n2c(-c3cc(-c4nc5ccccc5n4-c4ccccc4)cc(-c4nc5ccccc5n4-c4ccccc4)c3)nc3ccccc32)cc1 is ____.
### Response 0.0042
